Measurement record for Orexin/Hypocretin receptor type 1 (Rattus norvegicus, UniProt P56718); quantity recorded: Ki.
Value kind: Ki (nM)

Worked examples follow.
Smiles representation | Value observed
COC(=O)c1c(C#N)ccnc1O[C@@H]1CC[C@@H](C)N(C(=O)c2c(C)cccc2-n2nccn2)C1 | 37.1
COC(=O)c1c(C#N)ccnc1O[C@@H]1CC[C@@H](C)N(C(=O)c2ccccc2-c2nc(C)no2)C1 | 73.8
COC(=O)c1c(C#N)ccnc1O[C@@H]1CC[C@@H](C)N(C(=O)c2cc(F)ccc2-c2ncccn2)C1 | 46
COC(=O)c1c(C#N)ccnc1O[C@@H]1CC[C@@H](C)N(C(=O)c2ccc(F)cc2-n2nccn2)C1 | 175

1. COC(=O)c1c(C#N)ccnc1O[C@@H]1CC[C@@H](C)N(C(=O)c2ccc(F)cc2-c2ncccn2)C1
2. COC(=O)c1c(C#N)ccnc1O[C@@H]1CC[C@@H](C)N(C(=O)c2cccc(F)c2-n2nccn2)C1
3. COC(=O)c1c(C#N)ccnc1O[C@@H]1CC[C@@H](C)N(C(=O)c2cc(C)ccc2-n2nccn2)C1
Falling order of Ki, please. I'd appreciate it if you listed the labels in the requested order.
2, 1, 3
(2: 210 nM, 1: 75.6 nM, 3: 25.8 nM)
